// data source = patent US20210079087A1

IC50 (nM), IL6 production by TNFα-primed NIH3T3 cells stimulated with human IL-17A listing for selected binders.
# Measured On: human IL-17A (human, UniProt Q16552 24-155)
# Sequence (Q16552 24-155 limits assumed): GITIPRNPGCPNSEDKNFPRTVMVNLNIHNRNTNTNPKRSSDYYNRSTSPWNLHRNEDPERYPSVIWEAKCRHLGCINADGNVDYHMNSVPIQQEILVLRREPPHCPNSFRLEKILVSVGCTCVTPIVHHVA
# Experiment: cell-based or functional assay
Lab book: enter the figure in nM, no units written.

QUERY: What IC50 (nM), IL6 production by TNFα-primed NIH3T3 cells stimulated with human IL-17A value was documented for this binder, 22E2G4 (antibody, mouse IgG1, V domains shown, amino acids 1-19 are stated as the leader; also called A3) VH: QVQLQQPGAELVMPGTSVRLSCKASGYTFTSYWMHWVKQRPGQGLEWIGEIDPSDTYTNYNPKFKGKATLTVDKSSSTAYMQFTSLTSEDSAVYYCARSGIYYDYYEDYWGQGTTLTVSS VL: DVVMTQTPLSLPVSLGDQASISCRSSQILLHSNGNTYLHWYLQKPGQSPKLLIYKVSNRFSGVPDRFSGSGSGTDFTLKISRVEAEDLGVYFCSQSVHVPTFGGGTKLEIK ?
RESULT: 0.534

QUERY: Record: 24F11E4 (antibody, mouse IgG1, V domains shown, amino acids 1-19 are stated as the leader; also called A5) VH: QVQLQQPGAELVMPGASVRLSCKASGYTFTNYWIHWVKQRPGQGLEWIGEIDPSDTFTNYSPKFKGKATLTVDKSSSTAYMQLTGLTSEDSAVYFCARSGIYYDYYEDYWGQGTTLTVSS VL: DVVMTQTPLSLPVSLGDQVSISCRSSQILLHSNGNTYLHWYLQKPGQSPKLLIYKVSNRFSGVPDRFSGSGSGTDFTLKISRVEADDLGVYFCSQSVHVPTFGGGTKLEIK
RESULT: 0.138

QUERY: Record: 26G11B11 (antibody, mouse IgG1, V domains shown, amino acids 1-19 are stated as the leader; also called A6) VH: QVQLQQPGAELVMPGASVKLSCKAAGYTFTSYWMHWVKQRPGQGLEWIGEIDPSDSYTNYNQKFKGKATLTVDKSSSTAYMQLSSLTSEDSAVYYCARSGIYYDYYEDYWGQGTTLTVSS VL: DVVMTQTPLSLPVSLGDQASISCRSSQSLVHSNGNTYLHWYLQKPGQSPKLLIYKVSNRFSGVPDRFSGSGSGTDFTLKISRVEAEDLGVYFCSQSIHVPTFGGGTKLEIK
RESULT: 0.544
